Measured GI50, listed per entry.
Test system: NCI-H460
Assay Explanation: Cytotoxicity against human NCI-H460 cells after 48 hrs by SRB assay
Assay type: functional
Conditions: NCI-H460, 48 h
Assay Metric: GI50

1) CC1(C)CCc2cc3oc4ccccc4c(=O)c3c(O)c2O1    > 150 µM
2) CC1(C)C=Cc2c(cc(O)c3c(=O)c4ccccc4oc23)O1    > 150 µM
3) CC1(C)C=Cc2cc3oc4ccccc4c(=O)c3c(O)c2O1    31.7 µM
4) COc1c2c(cc3oc4ccccc4c(=O)c13)CCC(C)(C)O2    > 150 µM
5) CC1(C)C=Cc2c(cc3oc4ccccc4c(=O)c3c2O)O1    > 150 µM
6) CC1(C)C=Cc2c(cc3c(=O)c4ccccc4oc3c2O)O1    > 150 µM

====

Test system: NCI-H460
Assay Explanation: Cytotoxicity against human NCI-H460 cells after 48 hrs by SRB assay
Assay type: functional
Conditions: NCI-H460, 48 h
Assay Metric: GI50 (µM)

1) COc1c2c(cc3oc4ccccc4c(=O)c13)C=CC(C)(C)O2    42.9
2) CC1(C)C=Cc2ccc3c(=O)c4ccccc4oc3c2O1    32.9
3) COc1c2c(cc3c(=O)c4ccccc4oc13)OC(C)(C)CC2    47.3
4) CC1(C)C=Cc2c(ccc3oc4ccccc4c(=O)c23)O1    44.5

====

Measured GI50, listed per entry.
Assay Explanation: Cytotoxicity against human A375-C5 cells after 48 hrs by SRB assay
Type: functional
Conditions: A375-C5, 48 h
Assay Metric: GI50

1. COc1c2c(cc3c(=O)c4ccccc4oc13)C=CC(C)(C)O2    > 150 µM
2. CC1(C)C=Cc2cc(O)c3c(=O)c4ccccc4oc3c2O1    > 100 µM
3. CC1(C)C=Cc2c(ccc3oc4ccccc4c(=O)c23)O1    37.9 µM
4. COc1c2c(cc3c(=O)c4ccccc4oc13)OC(C)(C)CC2    42.5 µM
5. CC1(C)C=Cc2c(cc3c(=O)c4ccccc4oc3c2O)O1    > 150 µM
6. COc1cc2c(c3oc4ccccc4c(=O)c13)OC(C)(C)CC2    > 100 µM
7. CC1(C)CCc2cc3oc4ccccc4c(=O)c3c(O)c2O1    > 150 µM
8. CC1(C)CCc2cc(O)c3c(=O)c4ccccc4oc3c2O1    > 50 µM
9. COc1cc2c(c3oc4ccccc4c(=O)c13)OC(C)(C)C=C2    69.5 µM
10. COc1c2c(cc3oc4ccccc4c(=O)c13)C=CC(C)(C)O2    47.4 µM
11. CC1(C)C=Cc2cc3oc4ccccc4c(=O)c3c(O)c2O1    29.6 µM
12. COc1c2c(cc3oc4ccccc4c(=O)c13)CCC(C)(C)O2    > 150 µM
13. CC1(C)C=Cc2ccc3c(=O)c4ccccc4oc3c2O1    6.2 µM

====

Tested on: HCT-116
Assay Explanation: Cytotoxicity against human HCT116 cells
Assay type: functional, cell-based
Assay Metric: IC50 (µM)

1. CC(C)=CCc1c2c(c3oc4cc(O)c(O)cc4c(=O)c3c1O)C=CC(C)(C)O2    4.1

====

Measured log Kp, listed per entry.
Assay Explanation: Partition coefficient, log Kp of the compound in liposome-HEPES buffer at pH 7.4
Type: physicochemical
Conditions: artificial membrane
Assay Metric: log Kp

1) CC1(C)C=Cc2cc3oc4ccccc4c(=O)c3c(O)c2O1    4.17
2) CC1(C)C=Cc2c(cc3c(=O)c4ccccc4oc3c2O)O1    3.06
3) CC1(C)C=Cc2c(ccc3oc4ccccc4c(=O)c23)O1    4.14
4) COc1c2c(cc3oc4ccccc4c(=O)c13)CCC(C)(C)O2    3.09
5) COc1c2c(cc3c(=O)c4ccccc4oc13)OC(C)(C)CC2    3.92
6) COc1c2c(cc3oc4ccccc4c(=O)c13)C=CC(C)(C)O2    3.54
7) COc1c2c(cc3c(=O)c4ccccc4oc13)OC(C)(C)C=C2    3.94
8) COc1cc2c(c3oc4ccccc4c(=O)c13)OC(C)(C)CC2    3.08
9) COc1cc2c(c3oc4ccccc4c(=O)c13)OC(C)(C)C=C2    3.32
10) COc1c2c(cc3c(=O)c4ccccc4oc13)C=CC(C)(C)O2    3.88
11) CC1(C)C=Cc2ccc3c(=O)c4ccccc4oc3c2O1    3.42
12) CC1(C)CCc2cc3oc4ccccc4c(=O)c3c(O)c2O1    3.96
